Value source: patent US20240400703A1

Form field: association response (one value per entry).
Target: recombinant human OX40 fused to a His-tag (Acro Biosystems, cat. no. OX0-H5224) (human) (UniProt P43489)
Sequence (P43489 29-214 limits assumed): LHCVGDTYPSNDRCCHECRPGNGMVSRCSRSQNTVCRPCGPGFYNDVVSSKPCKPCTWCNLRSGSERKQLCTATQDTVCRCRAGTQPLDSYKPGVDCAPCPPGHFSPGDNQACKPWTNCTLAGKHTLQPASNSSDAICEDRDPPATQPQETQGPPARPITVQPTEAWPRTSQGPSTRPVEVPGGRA
Assay: BLI cross-block; first Ab (competitor): IgG1-CD134-ABBV368
Enter your answer as a number in nm; do not include the unit.

| Binder | association response / nm |
| --- | --- |
| IgG1-CD134-ABBV368 (antibody, INN chains, looked up, V domains shown, IgG1) VH: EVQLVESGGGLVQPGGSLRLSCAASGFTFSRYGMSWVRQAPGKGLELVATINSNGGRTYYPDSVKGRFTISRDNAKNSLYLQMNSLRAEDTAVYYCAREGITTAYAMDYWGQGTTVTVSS VL: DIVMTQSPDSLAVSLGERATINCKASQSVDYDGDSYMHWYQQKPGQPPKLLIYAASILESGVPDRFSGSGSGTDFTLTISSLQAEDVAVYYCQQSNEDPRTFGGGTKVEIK | -0.04 |
| IgG1-CD134-Hu106 (antibody, from another filing, V domains shown) VH: QVQLVQSGSELKKPGASVKVSCKASGYTFTDYSMHWVRQAPGQGLKWMGWINTETGEPTYADDFKGRFVFSLDTSVSTAYLQISSLKAEDTAVYYCANPYYDYVSYYAMDYWGQGTTVTVSS VL: DIQMTQSPSSLSASVGDRVTITCKASQDVSTAVAWYQQKPGKAPKLLIYSASYLYTGVPSRFSGSGSGTDFTFTISSLQPEDIATYYCQQHYSTPRTFGQGTKLEIK | -0.01 |

association response for IgG1-CD134-GBR830 (antibody, INN chains, looked up, V domains shown, IgG1) VH: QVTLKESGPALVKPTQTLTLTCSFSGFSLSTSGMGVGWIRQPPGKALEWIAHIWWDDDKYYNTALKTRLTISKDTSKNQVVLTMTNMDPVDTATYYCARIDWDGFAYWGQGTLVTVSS VL: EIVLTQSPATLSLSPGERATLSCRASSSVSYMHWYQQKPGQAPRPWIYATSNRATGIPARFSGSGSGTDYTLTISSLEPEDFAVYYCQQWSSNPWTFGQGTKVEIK is -0.01

association response for IgG1-CD134-RG7888 (antibody, INN chains, looked up, V domains shown, IgG1) VH: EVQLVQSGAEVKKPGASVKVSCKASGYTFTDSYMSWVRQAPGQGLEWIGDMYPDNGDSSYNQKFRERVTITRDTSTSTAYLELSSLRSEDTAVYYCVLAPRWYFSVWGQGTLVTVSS VL: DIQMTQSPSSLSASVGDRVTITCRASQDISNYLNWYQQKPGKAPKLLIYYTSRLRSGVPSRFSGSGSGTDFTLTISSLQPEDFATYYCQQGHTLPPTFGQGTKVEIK is 0.01
